Experiment: Minimum toxic concentration against herpes simplex virus 2, in vero monkey kidney cells
Assay type: ADME, cell-based
Settings: chlorocebus sabaeus, read-out: MTC50
Items are presented alongside their recorded MCC.
Answer in µg/mL, number only, no unit symbol.

Some solved entries appear below for comparison.
compound: CC1C2(N)CCC(C2)C1(C)C (stereo unspecified)
unit abbreviation: µg/mL
MCC: 300
//
compound: C=C1C2CCC(NCC)(C2)C1(C)C (stereo unspecified)
unit abbreviation: µg/mL
MCC: 400
//
compound: CCNC12CCC(C1)C(C)C2(C)C (stereo unspecified)
unit abbreviation: µg/mL
MCC: 300
//
compound: CC1C2CCC(N)(C2)C1(C)C (stereo unspecified)
unit abbreviation: µg/mL
MCC: 200
//
compound: CCNC12CCC(C1)C(C)(C)C2C (stereo unspecified)
unit abbreviation: µg/mL
MCC: 300

Next, consider the following compound.
Entry under test: C=C1C2(NCC)CCC(C2)C1(C)C (stereo unspecified) . Its MCC was 300

====

Test: Minimum toxic concentration against African swine fever virus, in vero monkey kidney cells
Format: ADME, cell-based
Details: chlorocebus sabaeus, read-out: MTC50
measured attribute: MCC (µg/mL)
Answer in µg/mL, number only, no unit symbol.

compound: CC1C2(N)CCC(C2)C1(C)C (stereo unspecified)
MCC [µg/mL]: 300
//
compound: CCNC12CCC(C1)C(C)(C)C2C (stereo unspecified)
MCC [µg/mL]: 300
//
compound: C=C1C2CCC(NCC)(C2)C1(C)C (stereo unspecified)
MCC [µg/mL]: 400
//
compound: C=C1C2(NCC)CCC(C2)C1(C)C (stereo unspecified)
MCC [µg/mL]: 300
//
compound: CCNC12CCC(C1)C(C)C2(C)C (stereo unspecified)
MCC [µg/mL]: 300

Next, consider the following compound.
Entry under test: CC1C2CCC(N)(C2)C1(C)C (stereo unspecified) . Its MCC was 200

====

Items are presented alongside their recorded MCC.
Test: Minimum toxic concentration against influenza A virus, in MDCK cells from dog kidney
Type: ADME, cell-based, Canis lupus familiaris
Conditions: read-out: MTC50

Some solved entries appear below for comparison.
molecule: C=C1C2CCC(NCC)(C2)C1(C)C (stereo unspecified)
MCC: 100 µg/mL
//
molecule: Cl.NC12CC3CC(CC(C3)C1)C2 [AMANTADINE HYDROCHLORIDE]
MCC: 300 µg/mL
//
molecule: CC1C2CCC(N)(C2)C1(C)C (stereo unspecified)
MCC: 50 µg/mL

Entry under test: CCNC12CCC(C1)C(C)(C)C2C (stereo unspecified) . Its MCC was 100 µg/mL

Entry under test: CCNC12CCC(C1)C(C)C2(C)C (stereo unspecified) . Its MCC was 100 µg/mL

Entry under test: C=C1C2(NCC)CCC(C2)C1(C)C (stereo unspecified) . Its MCC was 200 µg/mL
